These measurements were taken from the supplement of paper PMC10567573.

B1: RAD54B (parent)
chain: YVQEKRDGLKRRQQLEEELLRAKI

Variants of: B1
Assay: protein stability index of a GFP-peptide fusion (GPS, HEK-293T) (PSI 1-6); higher = more stable;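 also: lentivirally expressed fusions sorted by FACS into six bins by GFP to DsRed ratio, PSI derived from sequencing read proportions per bin multiplied by bin number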
Settings: c terminus: a fixed tail appended

{"MUTANT_NAME": "R21P", "protein stability index": 2.32}
{"MUTANT_NAME": "A22K", "protein stability index": 1.82}
{"MUTANT_NAME": "G8W", "protein stability index": 3.6}
{"MUTANT_NAME": "E17Y", "protein stability index": 1.36}
{"MUTANT_NAME": "R11F", "protein stability index": 1.69}
{"MUTANT_NAME": "Q3M", "protein stability index": 1.64}
{"MUTANT_NAME": "Q3C", "protein stability index": 2.01}
{"MUTANT_NAME": "E18D", "protein stability index": 1.86}
{"MUTANT_NAME": "K5Y", "protein stability index": 2.4}
{"MUTANT_NAME": "L19E", "protein stability index": 1.95}
{"MUTANT_NAME": "I24L", "protein stability index": 1.65}
{"MUTANT_NAME": "L19S", "protein stability index": 2.45}
{"MUTANT_NAME": "K5S", "protein stability index": 2.56}
{"MUTANT_NAME": "R6K", "protein stability index": 1.96}
{"MUTANT_NAME": "E18P", "protein stability index": 2}
{"MUTANT_NAME": "L9Y", "protein stability index": 1.91}
{"MUTANT_NAME": "K10M", "protein stability index": 2.46}
{"MUTANT_NAME": "L15W", "protein stability index": 1.49}
{"MUTANT_NAME": "V2C", "protein stability index": 3.08}
{"MUTANT_NAME": "E18I", "protein stability index": 1.67}
{"MUTANT_NAME": "L9M", "protein stability index": 2.02}
{"MUTANT_NAME": "K23Q", "protein stability index": 1.59}
